experiment: qHTS assay for cell viability of the p53RE-bla HCT-116 cell line (AID 743292); settings: p53RE-bla HCT-116 viability, ATP luminescence, 16 h; series mostly up to 95 µM; further: nearly all actives have a fitted effect of over 55% in size
Inconclusive results are not listed. Calls of active or inactive are those of the source. The call rests on the fitted dose curve; in most records, active means well fitted cell-killing curve with a large enough effect; inconclusive means small, poorly fitted or top-dose-only effect, or effect the other way; inactive means flat fitted curve, though single readings scatter.
Labels: TRUE (active), FALSE (inactive)

| molecule | labelClass |
| --- | --- |
| Cc1ccc(CO)cc1 | FALSE |
| Cc1ccc2oc(=O)ccc2c1 | FALSE |
| c1ccc(Nc2ccccc2)cc1 | FALSE |
| Cc1cc(C(=O)O)ccc1[N+](=O)[O-] | FALSE |
| O=[N+]([O-])c1ccc(NCCO)c(OCCO)c1 | FALSE |
| Nc1cccc2c(=O)[nH][nH]c(=O)c12 | FALSE |
| CC(C)(C)OCC1CO1 (stereo not given) | FALSE |
| CCc1ccccc1 | FALSE |
| Nc1cc(Cl)c([N+](=O)[O-])cc1O | FALSE |
| C=CCOC(=O)CCCCCCCC | FALSE |
| O=C(O)c1ccc(Cl)cc1Cl | FALSE |
| O=Nc1ccc(NO)cc1 | FALSE |
| CCCCCCC=O | FALSE |
| C=C(C)C(=O)OCC(C)C | FALSE |
| O=C(O)c1ccc(Cl)c(Cl)c1 | FALSE |
| CC1=C(/C=C/C(C)=C/C=C/C(C)=C\C=O)C(C)(C)CCC1 | TRUE |
| c1ccc2n[nH]nc2c1 | FALSE |
| O=C(O)c1cccc(Cl)c1Cl | FALSE |
| CN(C)c1cccc(O)c1 | FALSE |
| CCCOCC(C)O (stereo not given) | FALSE |
| c1ccc(Oc2ccccc2)cc1 | FALSE |
| Cc1cc(C)cc(N)c1 | FALSE |
| Cc1ccc(C)o1 | FALSE |
| CCCC(C)CO (stereo not given) | FALSE |
| FC(F)(F)c1cccc(Cl)c1 | FALSE |
| Cc1cccc2cccnc12 | FALSE |
| CCCCC(C=O)CC (stereo not given) | FALSE |
| CC1(N)CCC(C(C)(C)N)CC1 (stereo not given) | FALSE |
| Cc1cc([N+](=O)[O-])ccc1N | FALSE |
| CC(CCl)OC(C)CCl (stereo not given) | FALSE |

====

test: MultiTox-Fluor Cytotoxicity Assay - LYMP1-003 - Live Cells (AID 962); details: LYMP1-003 lymphoblastoid cells, MultiTox-Fluor live-cell protease fluorescence; series mostly up to 92.2 µM;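 further: cells exposed to compound for 16 hours at 37 °C; 0% = DMSO only and full loss = 92 µM tetraoctylammonium bromide; cytotoxic hits lower the live-cell protease signal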
Activity calls are given as the source filed them. The call rests on the fitted dose curve; in most records, active means well fitted cell-killing curve with a large enough effect; inconclusive means small, poorly fitted or top-dose-only effect; inactive means flat fitted curve, though single readings scatter.

| compound | outcome |
| --- | --- |
| Cc1ccc2cccnc2c1 | inactive |
| O=Cc1ccc(Cl)cc1 | inactive |
| c1ccc2[nH]cnc2c1 | inactive |
| NC=O | inactive |
| CCc1ccccc1 | inactive |
| O=Cc1c(Cl)cccc1Cl | inactive |
| CCCCCCCCC/C=C/CC1CC(=O)OC1=O (stereo not given) | inactive |
| CCOc1cc(OCC)c(C(C)=O)cc1OCC | inactive |
| C=CCCCCCC | inactive |
| CC(=O)OCCC(C)C | inactive |
| CCNc1cc(O)ccc1C | inactive |
| O=C1OC(=O)c2c(Br)c(Br)c(Br)c(Br)c21 | inactive |
| CCOc1cccc(N)c1 | inactive |
| Cc1ccc(C)c([N+](=O)[O-])c1 | inactive |
| O=C(O)c1cc(Cl)cc(Cl)c1 | inactive |
| CN(C)CCCNCCCN | inactive |
| CCCCC(CC)COCC1CO1 (stereo not given) | inactive |
| CC(C)Cc1nccs1 | inactive |
| O=C(O)CNC(=O)c1ccc([N+](=O)[O-])cc1 | inactive |
| C=C(C)C(=O)OCC(C)C | inactive |
| O=C(O)CN(CC(=O)O)CC(=O)O | inactive |
| CCNc1ccccc1 | inactive |
| C=CC(=O)NC(C)C | inactive |
| ICCc1ccccc1 | inactive |
| Cc1cc(C)c(N)cc1C | inactive |

====

molecular target: Peroxisome proliferator-activated receptor alpha (Homo sapiens) (UniProt Q07869); assay: qHTS assay for small molecule agonists of the peroxisome proliferator-activated receptor alpha (PPARalpha) signaling pathway (AID 651778); settings: PathHunter PPARalpha complementation, chemiluminescence, 6 h; stronger effect = higher value; further: % of control where 0% means no effect
Sequence (Q07869 whole entry, looked up): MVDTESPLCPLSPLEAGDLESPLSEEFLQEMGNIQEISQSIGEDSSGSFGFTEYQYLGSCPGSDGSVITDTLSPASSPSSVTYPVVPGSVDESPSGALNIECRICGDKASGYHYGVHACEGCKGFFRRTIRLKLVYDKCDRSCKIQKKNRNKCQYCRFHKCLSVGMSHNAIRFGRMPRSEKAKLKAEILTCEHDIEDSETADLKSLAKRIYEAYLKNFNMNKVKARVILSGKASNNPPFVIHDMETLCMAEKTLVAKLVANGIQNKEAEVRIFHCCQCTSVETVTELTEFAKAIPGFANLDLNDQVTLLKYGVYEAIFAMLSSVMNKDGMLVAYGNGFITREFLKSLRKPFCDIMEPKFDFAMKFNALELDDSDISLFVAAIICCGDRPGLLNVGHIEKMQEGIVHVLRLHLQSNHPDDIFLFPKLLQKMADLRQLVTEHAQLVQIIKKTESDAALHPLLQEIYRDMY
The source made the active and inactive calls. Calls follow the shape of the dose curve; as a rule, active = well fitted activation curve with a large enough effect; inconclusive = small, poorly fitted or top-dose-only effect; inactive = flat fitted curve, though single readings scatter.
Here, each record is paired with measured max response data.

| compound | max response |
| --- | --- |
| C/C=C1\CC2C=CC1C2 (stereo not given) | -5.32% (inactive) |
| Nc1nc2ccccc2[nH]1 | -2.62% (inactive) |
| CC(=O)OC(C)=O | -5.07% (inactive) |
| CCOC(C)(C)C | -4.96% (inactive) |
| CC(=O)CC(C)C | -2.67% (inactive) |

====

assay: qHTS assay for small molecule agonists of the antioxidant response element (ARE) signaling pathway measured by Nrf2-dependant transcriptional activity - cell viability counter screen (AID 720653); details: ARE-bla HepG2 viability, CellTiter-Glo ATP luminescence, 16 h; stronger effect = lower value; further: on the % scale 0 is the no-effect control and ±100 the full control effect
Inconclusive results are not listed.

| querySmiles | max response, % |
| --- | --- |
| O=Cc1ccc(CO)o1 | -0.711 |
| Cc1ccco1 | -4.14 |
| NCCCCCCN | -0.206 |
| CC(C)(O)CCC(C)(C)O | -2.27 |
| CCOCCO | 10.2 |
| CCOCCOCC | 5.13 |
| CC(C)Cc1nccs1 | 25.9 |
| CC(=O)c1ccc([N+](=O)[O-])cc1 | 19 |
| CN(C)c1cccc(O)c1 | -0.49 |
| Cc1cccc([N+](=O)[O-])c1C(=O)O | 0.554 |
| c1ccc2c(c1)Oc1ccccc1S2 | 6.9 |
| Nc1nc(-c2ccccc2)cs1 | 4.04 |
| Cc1ccc2c(c1[N+](=O)[O-])C(=O)c1ccccc1C2=O | -12.9 |
| CCCCN(CCO)CCCC | -4.16 |
| c1ccc2[nH]cnc2c1 | -6.28 |
| Cc1ccccc1C=O | -9.4 |
| FC(F)(F)c1cccc(Cl)c1 | -9.33 |
| Cc1ccc(C)c(O)c1 | 0.808 |
| CSc1ccc(C=O)cc1 | -8.76 |
| O=[N+]([O-])c1cccc(C(F)(F)F)c1 | 14.6 |
| O=P(O)(OCc1ccccc1)OCc1ccccc1 | 2.28 |
| CCN(Cc1ccccc1)c1ccccc1 | -1.24 |
| CCCCCCO | 4.6 |
| C=CC(=O)OCCCC | -3.72 |
| Cc1ccc(N(C)C)cc1 | -14.6 |
| CCOc1ccccc1N | 12.7 |
| Cc1cccc2cccnc12 | -7.04 |
| CCCCC=O | -1.82 |
| C=CCOC(=O)COCCC(C)C | 5.49 |
| CNc1ccccc1 | -0.57 |
| O=Cc1ccc(Cl)cc1 | 7.47 |
| CCC(C)(C)C | -1.09 |
| Clc1ccccn1 | -1.74 |

====

experiment: Cell Viability - LYMP2-018 (AID 985); details: LYMP2-018 lymphoblastoid cells, viability (qHTS); series mostly up to 92.2 µM;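 further: compound exposure lasted 24 hr at 37 °C; nearly all actives have a fitted effect of over 50% in size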
Records with an inconclusive call do not appear. Activity calls are given as the source filed them. The call rests on the fitted dose curve; in most records, active means well fitted cell-killing curve with a large enough effect; inconclusive means small, poorly fitted or top-dose-only effect; inactive means flat fitted curve, though single readings scatter.
Outcomes: t = active, f = inactive

| molecule | labelClass |
| --- | --- |
| O=[N+]([O-])c1cccc(Cl)c1 | f |
| S=C([S-])NCCNC(=S)[S-].[Zn+2] | f |
| O=C(O)CCSSCCC(=O)O | f |
| Nc1cc(Cl)c([N+](=O)[O-])cc1O | f |
| CCc1ccccc1 | f |
| O=C1OC(=O)c2c(Cl)c(Cl)c(Cl)c(Cl)c21 | f |
| CC(=O)CCc1ccccc1 | f |
| O=Cc1cccc(Br)c1 | f |
| NC(N)=S | f |
| O=Cc1ccc(Cl)cc1 | f |
| CC1(N)CCC(C(C)(C)N)CC1 (configuration not stated) | f |
| C=CCCCC | f |
| CC#N | f |
| BrC(Br)C(Br)Br | f |
| O=C1OC(=O)c2cc([N+](=O)[O-])ccc21 | f |
| CCCCC(CC)CO (configuration not stated) | f |
| Nc1ccccc1[N+](=O)[O-] | f |
| CC(C)CO | f |
| CCCCC=O | f |
| CC(C)(O)C(=O)O | f |
| Nc1ccccc1S(=O)(=O)O | f |
| NC(=S)NNC(N)=S | f |
| O=[N+]([O-])c1c(Cl)cc(Cl)cc1Cl | f |
| C=C(C)C(=O)OCC(C)C | f |
| C1CCC2OC2C1 (configuration not stated) | f |
| CSCCC=O | f |
| CC/C(C)=N/O | f |
| Cc1cccc2cccnc12 | f |
| FC(F)(F)c1cccc(Cl)c1 | f |
| COc1ccccc1[N+](=O)[O-] | f |
| CCCCC(CC)COCC1CO1 (configuration not stated) | f |
| O=C(O)c1cc(Cl)cc(Cl)c1 | f |
| Cc1ccc2nc(-c3ccc(N)cc3)sc2c1S(=O)(=O)O | f |
| CCCCOCCOCCSC#N | f |
| Cc1cscn1 | f |
| CCNc1cc(O)ccc1C | f |
| c1ccc2c(c1)ccc1ncccc12 | f |
| C=CCCCCCCC=C | f |
| Cc1ccc(C)c(O)c1 | f |
| Cc1c(N)cccc1N | f |
| O=C(O)c1cccc(Cl)c1Cl | f |
| CC(=C/C=C/C(C)=C/C=C/C=C(C)/C=C/C=C(C)/C=C/C(=O)O)/C=C/C(=O)O | f |
| CCCCCO | f |
| CCCCCNCCCCC | f |
| OC(CCl)CCl | f |
| CCOC(=O)C(C)C(C)=O (configuration not stated) | f |
| CC(=O)OCCC(C)C | f |
| NC(=O)c1ccccc1[N+](=O)[O-] | f |
| C=CCCC | f |
| O=C1NC(=O)c2cc([N+](=O)[O-])ccc21 | f |
| O=Cc1ccc(C(=O)O)cc1 | f |
| Cc1cc(C)cc(N)c1 | f |
| CC(O)CC(C)O (configuration not stated) | f |
| O=C(Cl)c1c(Cl)cccc1Cl | f |
| CCC(C)(C)OC | f |
| CCCCC/C=C/C=C/C=O | t |
| O=C1CCC(=O)O1 | f |
| CC/C=C/C#N | f |
| Nc1cccc(O)c1 | f |
| CN(C)CCCCl | f |
| CCOCC(=O)O | f |
| C=CCOC(=O)CCCCCCCC | f |
